Reported protein stability index values for a set of sequences
# method.summary: protein stability index of a GFP-peptide fusion (GPS, HEK-293T) (PSI 1-6); higher = more stable;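 note: 24-mer peptide tiles fused after GFP, lentivirally expressed, FACS-sorted into six equal bins by GFP/DsRed ratio, decoded by Illumina sequencing, PSI is the read-weighted mean bin number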
# condition.details: treatment: DMSO; c terminus: a fixed tail appended
measured.quantity: protein stability index

# biosequence, measurement
measured = [
    ("KTIDLGAAAHYTGDKASPDQNAST [CLINT1]", 5.26),
    ("MSAALFSLDGPARGAPWPAEPAPF [CEBPD]", 2.95),
    ("ADYFATFVQREEQLQFLIRYHRFI [CDS1]", 2.2),
    ("EDHGLVTCSADHLIILWKNGERES [WDR41]", 3.27),
    ("SPADYLRFQDLVLRMLEYEPAARI [DYRK1B]", 2.56),
    ("SQPIDLSACTVALHIFQLNEDGPS [TRIP13]", 2.56),
    ("EDYSRDEDHIAHIIELLGSIPRHF [SRPK2]", 2.62),
    ("PAPNKKRKSSKLIMELTGGGQESS [MYOZ1]", 4.82),
    ("EAQHGPHSAVARISRAQYNALTLT [STX11]", 3.32),
    ("TTPLSPTRLSRLQEKEELRELNDR [LMNB1]", 5.18),
    ("SLKFFLNKPMLADVVFEIQGTTVP [RHOBTB3]", 2.68),
    ("WTVWSGNRASLYSFPEPEAAQPMT [PRAME]", 2.45),
    ("TFQSSVLRVGIPENAPIGTLLLRL [PCDHGC5]", 2.23),
    ("AVDFTQEEWGQLDPTQRILYRDVM [ZNF8]", 3.75),
    ("KNHEEEMLALRGQTGGDVNVEMDA [KRT16]", 5.46),
    ("DQTTSEETVGGAILDQTTSEDAVG [HDAC6]", 5.54),
    ("HSGSVVGAGLPQFQSISLRKIQFN [CLCN6]", 2.85),
    ("EEWNALQSVENCPEDLAQLEELID [RPAIN]", 5.14),
    ("WVCLAYFTSGFNAAALDYEADGST [SPACA3]", 2.9),
    ("TPEELTILGETQEEEDEILPRKDY [CLCN6]", 5.51),
    ("THSREKSSQESGEEAGSQENHPQE [CHGB]", 5.54),
    ("ARLFDEPQLASLCLDTIDKSTMDA [BTBD1]", 4.35),
    ("SPQIQRSAHRALYRRHVLGIVLQG [TMEM175]", 2.3),
    ("FGVKYNPYTRSIQILKDTKSITSA [TPH1]", 2.43),
    ("NGTYAGPAPAFQPFFFTGAFPFNM [ANKRD40]", 2.32),
    ("TEWACILRRKTPRHKQPTLLMVRA [C6orf223]", 2.19),
    ("PGQGGPASTPAQTAAGGQGGPGGP [NR2F2]", 5.25),
    ("SQVALKIIRNVGKYREAARLEINV [CLK3]", 2.67),
    ("LPYTDGLSWELLDSHLGGNARGMG [CTBP1-DT]", 2.98),
    ("PCFKWYTSPWSECTKTCGVGVRMR [ADAMTSL2]", 2.07),
    ("NAKTEQGPTGVTMTSNPITWGQIK [CDK11A]", 4.19),
    ("SDDDEEEEENIGCEEKAKKNANRP [ACBD3]", 5.42),
    ("SDLKDDDAVPPGMESLISAPLVKT [CDC25B]", 5.21),
    ("FLDKSGSHGYDMSTFIRRYSRYLN [SNAP91]", 2.38),
    ("SGPARVIAIVSVMVILISIVIFCL [KCNA1]", 2.18),
    ("YTTEFHELEKIGSGEFGSVFKCVK [WEE1]", 2.49),
    ("GYGGSRDSYSSSRSDLYSSGRDRV [RBMX]", 3.83),
    ("EADASHCIQQILEAVLHCHQMGVV [CAMK2A]", 3.3),
    ("YKDFLWFFSKRFKSAAMLAVFAVS [SOAT1]", 2.25),
    ("RAGLDLPTIDTGYDSQPQDVLGIR [TRAF3IP2]", 4.25),
    ("HTPAGAAVSAMKCGLLPISPEALS [ADD1]", 3.13),
    ("QNARLAELERKLREVMESAVGNSS [FBXO28]", 3.68),
    ("EKALKKNVKLQELINHKKAEDTEK [CEP70]", 4.85),
    ("GSDKQQQQQHIECVVCGDKSSGKH [NR2F2]", 4.93),
    ("HESFFSLFSDPRSTRLTRIHLRED [ZER1]", 3.04),
    ("GACPGADEAGGGAEGDSWEEEGFG [WEE1]", 5.35),
    ("VNLLHIESRKSKRRNSEFEIFVDC [TPH1]", 2.26),
    ("SSAYVKTSEKLGEWNEKVTQSDLY [TPD52L2]", 4.02),
    ("NLPFWVKEKANSLKNEIQEVEELD [SPATS1]", 4.7),
    ("ENAPIGTLLLRLNATDPDEGTNGQ [PCDHGC5]", 4.95),
]
